Reported SPOT intensity values follow for various binders
target: Bem1-2, P29366; test: SPOT array; details: median of control spots 4347
Sequence (P29366 139-227): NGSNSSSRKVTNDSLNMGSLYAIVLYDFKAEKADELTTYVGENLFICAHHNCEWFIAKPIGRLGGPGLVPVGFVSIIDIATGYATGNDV
assayMetric: SPOT intensity

binder: PHNPSPFFPPPDFND
assayMetric: SPOT intensity
obsValue: 0

binder: RVTRKRPREPKSTND
assayMetric: SPOT intensity
obsValue: 0

binder: QTMRQAPKRPDADVA
assayMetric: SPOT intensity
obsValue: 65

binder: MSPLGAPPPPPHKDH
assayMetric: SPOT intensity
obsValue: 0

binder: SHRLWLYAAPKRPKT
assayMetric: SPOT intensity
obsValue: 0

binder: DTFLPPPPPPPSNFE
assayMetric: SPOT intensity
obsValue: 0

binder: FYNRTAFQLPGDARV
assayMetric: SPOT intensity
obsValue: 1

binder: SPLGAPPPPPHKDHL
assayMetric: SPOT intensity
obsValue: 0

binder: WRPRIVPILPYITRL
assayMetric: SPOT intensity
obsValue: 94

binder: VQPTAAPATPPRHIS
assayMetric: SPOT intensity
obsValue: 0

binder: APKHAPPPVPNETDN
assayMetric: SPOT intensity
obsValue: 0

binder: IKKRNKIRLPSGSPE
assayMetric: SPOT intensity
obsValue: 0

binder: RVRKTHVPASKRPSG
assayMetric: SPOT intensity
obsValue: 0

binder: EREKALPPIPFTTTL
assayMetric: SPOT intensity
obsValue: 0

binder: NSVPIMPTLPPRPYI
assayMetric: SPOT intensity
obsValue: 2
